B1: CLK3 (parent)
chain: FGEDYYGPSRSRHRRRSRERGPYR

- Variants of: B1
- Assay Protocol: protein stability index of a GFP-peptide fusion (GPS, HEK-293T) (PSI 1-6); higher = more stable;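 also: lentivirally expressed fusions sorted by FACS into six bins by GFP to DsRed ratio, PSI derived from sequencing read proportions per bin multiplied by bin number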
- Study Conditions: c terminus: a fixed tail appended
Quantity Name: protein stability index
Enter a number only.

stdin: Field request: protein stability index | item: "R24S"
stdout: 2.46

src = the supplement of paper PMC10567573
